- test.target: T1, human SAS1B (Homo sapiens, UniProt Q6HA08)
- T1 construct: made in house; host or cells: E. coli
- T1 sequence (Q6HA08 24-431): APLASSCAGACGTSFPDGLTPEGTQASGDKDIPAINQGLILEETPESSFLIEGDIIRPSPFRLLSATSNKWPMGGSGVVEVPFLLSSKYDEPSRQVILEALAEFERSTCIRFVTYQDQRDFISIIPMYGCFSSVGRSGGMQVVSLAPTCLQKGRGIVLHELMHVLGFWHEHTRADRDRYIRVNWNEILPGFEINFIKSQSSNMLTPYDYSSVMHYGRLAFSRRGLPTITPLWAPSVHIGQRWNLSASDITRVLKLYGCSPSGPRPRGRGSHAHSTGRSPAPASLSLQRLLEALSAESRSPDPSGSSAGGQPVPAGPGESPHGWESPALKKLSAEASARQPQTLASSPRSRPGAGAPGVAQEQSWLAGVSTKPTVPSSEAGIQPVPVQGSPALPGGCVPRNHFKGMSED
- assay.name: Western blot of human SAS1B probed with anti-human SAS1B murine mAbs
- Format: binding
- test.settings: Table 1
- From the text: A western blot of human SAS1B and mouse SAS1B was probed with anti-human SAS1B murine monoclonal antibodies SB1, SB2, SB3, SB4, SB5, SB6, and SB7.
quantity.name: Specifically binds human SAS1B (and not mouse SAS1B)

| molecule | meas.value |
| --- | --- |
| SB6: mouse anti-human SAS1B monoclonal antibody, IgG2b; VH SEQ ID NO:16, VL SEQ ID NO:18 (antibody, listed as Mus musculus, V domains shown) VH: EVQLQQSGPELVKPGSSVKISCKPSGYTFTDYNMVWMKQSHGKSLEWIGAINPNNGGTTYNQKFKGKATLTVDKSSSTAYMELRSLTSEDSAVYYCAPNWDWFAYWGQGTLVTVSA VL: DVLMTQIPLSLPVSLGDQASISCRSSQSILHSNGNTYLEWYLQKPGQSPKLLIYKVSNRFSGVPDRFSGSGSGTDFTLKISRVEAEDLGVYYCFQGSHVPFTFGSGTKLEIK | Yes |

Provenance of the data: patent US20210269549A1
